Quick list: Papp A→B per entry.
Test: Apparent permeability across apical to basolateral side in MDCK cells
Format: ADME, cell-based, Canis lupus familiaris
Conditions: dog
measurement type: Papp A→B (nm/s)

1. Cc1c(S(=O)(=O)NC(=O)c2ccc(-n3ccc(OCC(C)(C)C(F)(F)F)n3)nc2N2C[C@@H](C)CC2(C)C)cnn1C = 38
2. Cc1nn(C)cc1S(=O)(=O)NC(=O)c1ccc(-n2ccc(OCC3(C(F)(F)F)CCC3)n2)nc1N1C[C@@H](C)CC1(C)C = 27
3. Cc1nn(C)cc1S(=O)(=O)NC(=O)c1ccc(-n2ccc(OCC3(C(F)(F)F)CC3)n2)nc1N1C[C@@H](C)CC1(C)C = 71
4. Cc1nn(C)cc1S(=O)(=O)NC(=O)c1ccc(-n2ccc(OCC(C)(C)C(F)(F)F)n2)nc1N1C[C@@H](C)CC1(C)C [ELEXACAFTOR] = 45
5. Cc1nn(C)cc1S(=O)(=O)NC(=O)c1ccc(-n2ccc(OCCC3(C(F)(F)F)CC3)n2)nc1N1C[C@@H](C)CC1(C)C = 117
6. Cc1nn(C)c(C)c1S(=O)(=O)NC(=O)c1ccc(-n2ccc(OCC(C)(C)C(F)(F)F)n2)nc1N1C[C@@H](C)CC1(C)C = 88
